# target.entity: 5-hydroxytryptamine receptor 1A (Rattus norvegicus, UniProt P19327)
# Sequence (P19327 whole entry): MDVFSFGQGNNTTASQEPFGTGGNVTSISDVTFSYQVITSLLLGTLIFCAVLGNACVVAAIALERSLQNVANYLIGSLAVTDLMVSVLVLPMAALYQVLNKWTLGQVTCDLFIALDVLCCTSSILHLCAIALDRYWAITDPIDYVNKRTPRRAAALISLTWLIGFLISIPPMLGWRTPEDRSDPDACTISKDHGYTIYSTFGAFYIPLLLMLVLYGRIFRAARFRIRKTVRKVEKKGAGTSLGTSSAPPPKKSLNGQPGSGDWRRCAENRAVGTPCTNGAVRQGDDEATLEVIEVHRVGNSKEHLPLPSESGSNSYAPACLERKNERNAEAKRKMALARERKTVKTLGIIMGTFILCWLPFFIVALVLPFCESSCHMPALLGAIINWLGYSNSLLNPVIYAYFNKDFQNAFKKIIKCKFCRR
# experiment.notes: The binding affinity by measuring its ability to displace [3H]8-OH-DPAT radioligand in 5-hydroxytryptamine 1A receptor on rat hippocampal preparation
# Type: tissue-based, Hippocampus
Form field: pKi (one value per entry).
Entry type: numeric. Quantity: pKi, the -log10 of concentration in molar units.

As a guide, the following entries are already answered.
sample.smiles: c1cnc(N[C@H]2CC[C@H](CCN3CCN(c4cccnc4)CC3)CC2)nc1
target.entity: 5-hydroxytryptamine receptor 1A (Rattus norvegicus, UniProt P19327)
pKi: 8.02

sample.smiles: c1cnc(N[C@H]2CC[C@H](CCN3CCN(c4cnccn4)CC3)CC2)nc1
target.entity: 5-hydroxytryptamine receptor 1A (Rattus norvegicus, UniProt P19327)
pKi: 7.54

sample.smiles: Clc1cccc(N2CCN(CC[C@H]3CC[C@H](Nc4ncccn4)CC3)CC2)c1Cl
target.entity: 5-hydroxytryptamine receptor 1A (Rattus norvegicus, UniProt P19327)
pKi: 7.12

sample.smiles: c1cnc(N[C@H]2CC[C@H](CCN3CCN(c4nccs4)CC3)CC2)nc1
target.entity: 5-hydroxytryptamine receptor 1A (Rattus norvegicus, UniProt P19327)
pKi: 8.00

sample.smiles: c1ccc(N2CCN(CC[C@H]3CC[C@H](Nc4ncccn4)CC3)CC2)nc1
target.entity: 5-hydroxytryptamine receptor 1A (Rattus norvegicus, UniProt P19327)
pKi: 8.66

sample.smiles: c1ccc(N2CCN(CC[C@H]3CC[C@H](Nc4ncccn4)CC3)CC2)cc1
target.entity: 5-hydroxytryptamine receptor 1A (Rattus norvegicus, UniProt P19327)
pKi: 8.46

sample.smiles: Fc1ccc(N2CCN(CC[C@H]3CC[C@H](Nc4ncccn4)CC3)CC2)cc1
target.entity: 5-hydroxytryptamine receptor 1A (Rattus norvegicus, UniProt P19327)
pKi: 8.35

sample.smiles: FC(F)(F)c1cccc(N2CCN(CC[C@H]3CC[C@H](Nc4ncccn4)CC3)CC2)c1
target.entity: 5-hydroxytryptamine receptor 1A (Rattus norvegicus, UniProt P19327)
pKi: 7.89

Qu. // Input: COc1ccccc1N1CCN(CC[C@H]2CC[C@H](Nc3ncccn3)CC2)CC1 . Output its pKi only.
Ans. 9.30

Qu. // Input: c1ccc(N2CCN(CC[C@H]3CC[C@H](Nc4ncnc5ccccc45)CC3)CC2)cc1 . Output its pKi only.
Ans. 7.13

Qu. // Input: C1=C(c2ccccc2)CCN(CC[C@H]2CC[C@H](Nc3ncccn3)CC2)C1 . Output its pKi only.
Ans. 8.41

###

# target.entity: D(2) dopamine receptor (Homo sapiens)
# experiment.notes: The in vitro intrinsic activity was measured at DA D2 receptor by measuring its ability to increase [3H]thymidine uptake in CHO-K1 cells transfected with the Dopamine receptor D2
# Format: cell-based
Form field: pIC50 (one value per entry).
Entry type: numeric. Quantity: pIC50, the -log10 of concentration in molar units.

sample.smiles: Fc1ccc(N2CCN(CC[C@H]3CC[C@H](Nc4ncccn4)CC3)CC2)cc1
quantity: pIC50
measured.number: 7.10

# input for lookup
Qu. // Input: COc1ccccc1N1CCN(CC[C@H]2CC[C@H](Nc3ncccn3)CC2)CC1 . Output its pIC50 only.
Ans. 8.00

###

# target.entity: D(2) dopamine receptor (Homo sapiens, UniProt P14416)
# Sequence (P14416 whole entry): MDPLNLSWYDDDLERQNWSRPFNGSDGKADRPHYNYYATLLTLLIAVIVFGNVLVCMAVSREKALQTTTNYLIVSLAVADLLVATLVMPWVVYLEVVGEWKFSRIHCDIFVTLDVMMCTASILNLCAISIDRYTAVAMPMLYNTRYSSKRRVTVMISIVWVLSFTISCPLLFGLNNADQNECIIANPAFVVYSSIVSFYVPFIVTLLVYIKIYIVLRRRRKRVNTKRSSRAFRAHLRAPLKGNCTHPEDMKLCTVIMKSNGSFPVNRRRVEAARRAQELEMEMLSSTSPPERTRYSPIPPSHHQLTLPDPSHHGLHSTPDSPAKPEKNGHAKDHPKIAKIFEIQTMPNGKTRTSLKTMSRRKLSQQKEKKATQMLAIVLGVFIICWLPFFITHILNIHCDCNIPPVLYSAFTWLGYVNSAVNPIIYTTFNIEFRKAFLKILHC
quantity: pKi
Entry type: numeric. Quantity: pKi, the -log10 of concentration in molar units.

sample.smiles: c1cnc(N[C@H]2CC[C@H](CCN3CCN(c4cccnc4)CC3)CC2)nc1
pKi: 7.60
//
sample.smiles: c1ccc(N2CCN(CC[C@H]3CC[C@H](Nc4ncccn4)CC3)CC2)cc1
pKi: 8.28
//
sample.smiles: c1ccc(N2CCN(CCC[C@H]3CC[C@H](Nc4ncccn4)CC3)CC2)cc1
pKi: 8.13
//
sample.smiles: C1=C(c2ccccc2)CCN(CC[C@H]2CC[C@H](Nc3ncccn3)CC2)C1
pKi: 8.33

# input for lookup
Qu. Using D(2) dopamine receptor (Homo sapiens, UniProt P14416) as the test system, report measured pKi of FC(F)(F)c1cccc(N2CCN(CC[C@H]3CC[C@H](Nc4ncccn4)CC3)CC2)c1 .
Ans. 8.22

###

# target.entity: D(3) dopamine receptor (Homo sapiens)
# Sequence (P35462 whole entry): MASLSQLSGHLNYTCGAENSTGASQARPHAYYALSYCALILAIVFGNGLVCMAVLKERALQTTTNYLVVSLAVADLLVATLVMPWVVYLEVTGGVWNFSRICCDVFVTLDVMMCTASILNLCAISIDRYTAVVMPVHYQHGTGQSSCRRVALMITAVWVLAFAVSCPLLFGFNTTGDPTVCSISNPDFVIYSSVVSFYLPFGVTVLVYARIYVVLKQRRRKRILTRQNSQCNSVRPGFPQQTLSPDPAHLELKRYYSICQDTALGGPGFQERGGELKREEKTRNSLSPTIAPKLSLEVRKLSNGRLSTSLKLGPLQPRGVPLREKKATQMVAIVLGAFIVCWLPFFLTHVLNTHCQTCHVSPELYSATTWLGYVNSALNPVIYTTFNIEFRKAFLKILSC
// assign satisfied if Ki falls strictly below 30 nM, else not satisfied (ties count as not satisfied)

Use the examples below as a reference point.
sample.smiles: c1cnc(N[C@H]2CC[C@H](CCN3CCN(c4cccnc4)CC3)CC2)nc1
category.label: satisfied
//
sample.smiles: FC(F)(F)c1cccc(N2CCN(CC[C@H]3CC[C@H](Nc4ncccn4)CC3)CC2)c1
category.label: not satisfied
//
sample.smiles: Clc1cccc(N2CCN(CC[C@H]3CC[C@H](Nc4ncccn4)CC3)CC2)c1Cl
category.label: satisfied

Qu. State whether 30 nM exceeds Ki recorded for c1ccc(N2CCN(CC[C@H]3CC[C@H](Nc4ncnc5ccccc45)CC3)CC2)cc1 .
Ans. satisfied

Qu. State whether 30 nM exceeds Ki recorded for c1cnc(N[C@H]2CC[C@H](CCN3CCN(c4ncccn4)CC3)CC2)nc1 .
Ans. not satisfied

Qu. State whether 30 nM exceeds Ki recorded for c1ccc(N2CCN(CC[C@H]3CC[C@H](Nc4ncccn4)CC3)CC2)nc1 .
Ans. satisfied

###

# target.entity: D(2) dopamine receptor (Homo sapiens, UniProt P14416)
# experiment.notes: The in vitro intrinsic activity was measured at DA D2 receptor by measuring its ability to increase [3H]thymidine uptake in CHO-K1 cells transfected with the Dopamine receptor D2
quantity: pEC50
Entry type: numeric. Quantity: pEC50, the -log10 of concentration in molar units.

Qu. Using D(2) dopamine receptor (Homo sapiens, UniProt P14416) as the test system, report measured pEC50 of c1ccc(N2CCN(CC[C@H]3CC[C@H](Nc4ncccn4)CC3)CC2)cc1 .
Ans. 7.54
